Cited source: paper PMC6544242

Readings of % from freshly prepared samples for the listed compounds
test.settings: human, 6 h, 2 ng/mL

| compound | endpoint.unit | % from freshly prepared samples |
| --- | --- | --- |
| O=c1nc(N2CCN(CC3CCCC(O)C3)CC2)sc2c([N+](=O)[O-])cc(C(F)(F)F)cc12 (stereo not drawn) [Met 3-OH] | % | -7 |
| O=C1CCCC(CN2CCN(c3nc(=O)c4cc(C(F)(F)F)cc([N+](=O)[O-])c4s3)CC2)C1 (stereo not drawn) [Met 3-oxo] | % | -4 |
| O=c1nc(N2CCN(CC3(O)CCCCC3)CC2)sc2c([N+](=O)[O-])cc(C(F)(F)F)cc12 [Met 1-OH] | % | -4 |
| O=c1nc(N2CCN(CC3CCCCC3O)CC2)sc2c([N+](=O)[O-])cc(C(F)(F)F)cc12 (stereo not drawn) [Met 2-OH] | % | -8 |
| O=C(C1CCCCC1)N1CCN(c2nc(=O)c3cc(C(F)(F)F)cc([N+](=O)[O-])c3s2)CC1 [Met oxo] | % | -6 |
| O=c1nc(N2CCN(CC3CCCCC3)CC2)sc2c([N+](=O)[O-])cc(C(F)(F)F)cc12 [PBTZ169, macozinone] | % | 5 |

----------
test.settings: human, 4 h, 200 ng/mL
Item-by-item account of % from t0

| molecule | % from t0 (%) |
| --- | --- |
| O=c1nc(N2CCN(CC3(O)CCCCC3)CC2)sc2c([N+](=O)[O-])cc(C(F)(F)F)cc12 [Met 1-OH] | -4 |
| O=c1nc(N2CCN(CC3CCCC(O)C3)CC2)sc2c([N+](=O)[O-])cc(C(F)(F)F)cc12 (stereo not drawn) [Met 3-OH] | 6 |
| O=C1CCCC(CN2CCN(c3nc(=O)c4cc(C(F)(F)F)cc([N+](=O)[O-])c4s3)CC2)C1 (stereo not drawn) [Met 3-oxo] | -18 |
| O=C(C1CCCCC1)N1CCN(c2nc(=O)c3cc(C(F)(F)F)cc([N+](=O)[O-])c3s2)CC1 [Met oxo] | 1 |
| O=c1nc(N2CCN(CC3CCCCC3O)CC2)sc2c([N+](=O)[O-])cc(C(F)(F)F)cc12 (stereo not drawn) [Met 2-OH] | -6 |
| O=c1nc(N2CCN(CC3CCCCC3)CC2)sc2c([N+](=O)[O-])cc(C(F)(F)F)cc12 [PBTZ169, macozinone] | -2 |

----------
Below, each entry is listed alongside its reported % from t0.
test.settings: human, 1 h, 100 ng/mL
measurement.kind: % from t0

| compound | measurement.kind | result |
| --- | --- | --- |
| O=C1CCCC(CN2CCN(c3nc(=O)c4cc(C(F)(F)F)cc([N+](=O)[O-])c4s3)CC2)C1 (stereo not drawn) [Met 3-oxo] | % from t0 | 0% |
| O=C(C1CCCCC1)N1CCN(c2nc(=O)c3cc(C(F)(F)F)cc([N+](=O)[O-])c3s2)CC1 [Met oxo] | % from t0 | -1% |
| O=c1nc(N2CCN(CC3CCCCC3)CC2)sc2c([N+](=O)[O-])cc(C(F)(F)F)cc12 [PBTZ169, macozinone] | % from t0 | 3% |
| O=c1nc(N2CCN(CC3CCCCC3O)CC2)sc2c([N+](=O)[O-])cc(C(F)(F)F)cc12 (stereo not drawn) [Met 2-OH] | % from t0 | 2% |
| O=c1nc(N2CCN(CC3CCCC(O)C3)CC2)sc2c([N+](=O)[O-])cc(C(F)(F)F)cc12 (stereo not drawn) [Met 3-OH] | % from t0 | 5% |
| O=c1nc(N2CCN(CC3(O)CCCCC3)CC2)sc2c([N+](=O)[O-])cc(C(F)(F)F)cc12 [Met 1-OH] | % from t0 | 2% |
